The reported numbers originate from patent US20130011375A1.

- TEST SYSTEM: T1, HCV NS5 (NS5 2221) peptide on HLA-A*02:01 (human)
- T1 peptide: SPDADLIEANL
- TEST DESCRIPTION: cytokine release

BINDER	binding result
I4F8 (TCR, V domains shown) Valpha: AQSVTQPDARVTVSEGASLQLRCKYSYFGTPYLFWYVQYPRQGLQLLLKYYPGDPVVQGVNGFEAEFSKSNSSFHLRKASVHWSDWAVYFCAVSNMGYKLTFGTGTSLLVDP Vbeta: DPKIIQKPKYLVAVTGSEKILICEQYLGHNAMYWYRQSAKKPLEFMFSYSYQKLMDNQTASSRFQPQSSKKNHLDLQITALKPDDSATYFCASSQEMGGALEQYFGPGTRLTVL	no recognition
I4G7 alpha chain with I4G7 beta chain1 (TCR, V domains shown) Valpha: AQSVTQPDARVTVSEGASLQLRCKYSYFGTPYRIEFSGREFALLFWYVQYPRQGLQLLLKYYPGDPVVQGVNGFEAEFSKSNSSFHLRKASVHWSDWAVYFCAVSRDTNTGKLTFGDGTVLTVKP Vbeta: EAAVTQSPRNKVAVTGGKVTLSCNQTNNHNNMGELNLAAANSPLYWYRQDTGHGLRLIHYSYVADSTEKGDIPDGYKASRPSQENFSLILELASLSQTAVYFCASSGGLGGHTLYFGAGTRLSVL	no recognition
